experiment: IV and PO pharmacokinetic studies of prodrug salts (Iab, Ibb, Icb) in the dog, with historical parent data; assay type: in vivo, beagle dogs; conditions: plasma, historical parent, IV 1 mg/kg, read-out: t1/2 (hr), IV (converted)
RECORDED ENDPOINT: half-life (h)
Express the result in h but write the number alone.

Lab book: half-life of `COc1ncc(OC)c2c(C(=O)C(=O)N3CCN(C(=O)c4ccccc4)CC3)c[nH]c12` noted as 2.6

###

experiment: Single-dose oral toxicokinetic study of prodrugs in rats; format: in vivo, rat; conditions: male, CD, rat, plasma, oral, 25 mg/kg; read-out: C24 h
RECORDED ENDPOINT: concentration at 24 h (µM)
Express the result in µM but write the number alone.

Lab book: concentration at 24 h of COc1cnc(-n2cnc(C)n2)c2[nH]cc(C(=O)C(=O)N3CCN(C(=O)c4ccccc4)CC3)c12 [IVc] noted as 0.35

###

assay: IV and PO pharmacokinetic studies of prodrug salts (Iab, Ibb, Icb) in the dog, with historical parent data; format: in vivo, beagle dogs; conditions: male, beagle, in vivo, iv, 1.28 mg/kg
RECORDED ENDPOINT: AUC (µM·h)
Express the result in µM·h but write the number alone.

Lab book: AUC of `COc1cnc(-n2cnc(C)n2)c2c1c(C(=O)C(=O)N1CCN(C(=O)c3ccccc3)CC1)cn2COP(=O)(O)O` noted as 0.61

###

test: Single-dose toxicokinetic and tolerability study of prodrugs in dogs; type: in vivo, dog; conditions: female, dog, plasma, po, 90 mg/kg, IVa in female dogs, Iab 90 mg/kg (71 IVa equiv.), Solution; Dogs #3201, #3202
RECORDED ENDPOINT: Cmax (µM)
Express the result in µM but write the number alone.

Lab book: Cmax of `COc1ncc(OC)c2c(C(=O)C(=O)N3CCN(C(=O)c4ccccc4)CC3)c[nH]c12` noted as 124

###

experiment: Single-dose toxicokinetic and tolerability study of prodrugs in dogs; assay type: in vivo, dog; conditions: male, dog, plasma, oral, 25 mg/kg, dog 2101M, day 8, Ibb 25 mg/kg QD aqueous solution; read-out: C24h
RECORDED ENDPOINT: concentration at 24 h (nM)
Express the result in nM but write the number alone.

Lab book: concentration at 24 h of `O=C(C(=O)N1CCN(C(=O)c2ccccc2)CC1)c1c[nH]c2c(-n3ccnn3)ncc(F)c12` noted as 547

###

assay: Single-dose toxicokinetic and tolerability study of prodrugs in dogs; format: in vivo, dog; conditions: female, dog, plasma, po, 250 mg/kg, dog 4201F, day 1, Ibb 250 mg/kg QD dry-filled capsules; emesis
RECORDED ENDPOINT: AUC(0-inf)
Please append the unit to your numeric answer.

Lab book: AUC(0-inf) of `O=C(C(=O)N1CCN(C(=O)c2ccccc2)CC1)c1c[nH]c2c(-n3ccnn3)ncc(F)c12` noted as 745 µM·h

###

experiment: Effect of food on oral absorption of IVa in dogs after Iab or IVa capsules; type: in vivo, dog; settings: dog, plasma, po, 20 mg/kg, IVa in dogs after Iab dry-filled capsules (20 mg/kg of IVa equivalent), Fasting, n = 3
RECORDED ENDPOINT: AUC (µM·h)
Express the result in µM·h but write the number alone.

Lab book: AUC of COc1ncc(OC)c2c(C(=O)C(=O)N3CCN(C(=O)c4ccccc4)CC3)c[nH]c12 [IVa] noted as 414
